System: maize (Zea mays, variety "LORENZO")
Procedure Summary: Root growth assay, seed treatment, maize
Assay type: in vivo
Test Settings: 10 g a.i./ha, wet root weight 16 (±2) days post treatment
The entries below are paired with their reported Root Growth (Root Growth of "100" is set as the standard).
Give only the figure.

Some compounds with known Root Growth (Root Growth of "100" is set as the standard) results, for comparison:
- Compound: "Nc1nc(Nc2cccc(C(F)(F)F)c2)sc1C(=O)c1ccc(OC(F)F)cc1 [Compound 1.58]"
  Measured Value: 107
- Compound: "Nc1nc(Nc2ccccc2)sc1C(=O)c1ccc(OC(F)F)cc1 [Compound 1.53]"
  Measured Value: 85
- Compound: "Nc1nc(Nc2ccccc2)sc1C(=O)c1cccs1 [Compound 1.79]"
  Measured Value: 116

*Q* Consider the compound Nc1nc(Nc2cccnc2)sc1C(=O)c1ccc(OC(F)F)cc1 [Compound 1.60] and give its measured Root Growth (Root Growth of "100" is set as the standard).
*A* 105
